Cited source for all entries: ChEMBL document CHEMBL5096176

assay: Selectivity index, ratio of CC50 for MDCK cells to EC50 for Amantadine-resistant Influenza A virus (A/Washington/29/2009 (H1N1)) infected in MDCK cells; assay type: toxicity, cell-based; conditions: dog, read-out: Ratio CC50/EC50
Measurement Name: selectivity ratio
Answer with the value's number alone.

Item Cc1cc(OCc2nnc(SC3CCCC3)n2-c2cccnc2)ccc1-c1ccc(S(C)(=O)=O)cc1 : provide selectivity ratio
50
